System: 786-0 renal
TEST METHOD NOTES: NCI-60 one-dose screen, 48 h (100 = growth as untreated, 0 = no growth, -100 = all killed)
ASSAY SETUP: 10 µM unless noted
About 83,000 compounds went through this panel and 20% of them were active in at least one assay; those are over-represented in the sample as a whole.

COMPOUND	growth, %
CC(CC(CCC(=O)O)(c1ccccc1)c1ccccc1)N(C)C (stereo not drawn)	98.5
O=[n+]1ccn([O-])c2ccccc21	103
O=S(Cc1ccccc1)/C(=C/NC(=S)Nc1ccccc1)c1ccccc1 (stereo not drawn)	110
CCN(CC)CCOC(=O)Nc1c(C(C)C)cccc1C(C)C	105
Cc1ccc(/C=N/NC(N)=S)s1	109
O=C(O)C1CCCN1C(=O)OCc1ccccc1 (stereo not drawn)	106
C/C(O)=C(/C=N/C(=S)Nc1ccccc1)C(=O)Nc1ccccc1C	102
CN(C)c1ccc2c(N(C)C)cc(N(C)C)nc2c1	94.8
COc1cccc(C(=O)NNC(=O)c2cccc3ccccc23)c1	104
CCN(C(=O)Nc1ccccc1Cl)c1ccccc1	112
COCC(N)=O	92
O=Cc1c(O)c2ccccc2[nH]c1=O	104
OCC1OC(n2ccc3c2ncn2ncnc32)C(O)C1O (stereo not drawn)	31.9

* * *

System: SW-620 colon
TEST METHOD NOTES: NCI-60 one-dose screen, 48 h
ASSAY SETUP: 10 µM unless noted
The panel holds about 83,000 compounds, 20% with a hit somewhere; the sample as a whole holds those more often. Active and inactive are the calls of the source. The calls were made as follows: active = growth percent below 10; inactive = the rest.
Outcome codes: active, inactive

COMPOUND	CATEGORY LABEL
COc1ccc2c(Cl)cc(NC(=O)Nc3c(C)cccc3C)nc2c1	inactive
CCCCCC/C=C\CCCCCCCCCc1cc(O)cc(OC)c1O	inactive
Cc1ccc([N+](=O)[O-])c(C)n1	inactive
COc1cc(C(=O)NC(=S)NCc2ccncc2)cc(OC)c1OC	inactive
CCOC(=O)CNC	inactive
CN(C)Cc1ccccn1	inactive
Nc1nc(Cl)cc(Cl)n1	inactive
N#CC1(O)CCCCC1	inactive
Nc1ncc([N+](=O)[O-])cn1	inactive
CC(C)C(C)(C)C(=O)C(C)(C)C(C)(C)C	inactive
Nc1c(Br)cc(O)c2c1C(=O)c1ccccc1C2=O	inactive
COc1cc(OC)c(NC(=O)C(Sc2nc(C)cc(C)c2C#N)c2ccccc2)cc1Cl (stereo unspecified)	inactive
CCOC(=O)c1ccc(NC(C)=O)o1	inactive
C/C(O)=C(/C=N/C(=S)Nc1ccccc1)C(=O)Nc1ccccc1C	inactive
CC(=O)O[C@H]1CC[C@]2(C)C3=C(C(=O)C[C@H]2C1(C)C)[C@]1(C)CC[C@H]([C@H](C)CCC(=O)O)[C@@]1(C)CC3=O	inactive
CC(C)=CCC[C@@H](C)[C@H]1CC[C@@]2(C)C3=C(CC[C@]12C)[C@@]1(C)CC[C@H](O)C(C)(C)[C@@H]1CC3	inactive
CCOc1ccc2c(c1)c(C)cc(C)[n+]2CC	inactive
CC1(C)C2CCC1(C)C1(C2)OCCS1 (stereo unspecified)	inactive
S=C(Sc1ccc(Cl)cc1)Sc1ccc(Cl)cc1	active
CCCC(OC(C)=O)c1ccc2c(c1)OCO2 (stereo unspecified)	inactive
O=C(O)Cc1ccccn1	inactive
O=[N+]([O-])c1ccc(-c2nc(N(CCO)CCO)c3ccccc3n2)o1	active
C(=C\c1ccncc1)/c1ccncc1	inactive
CC(=O)c1cccc(NS(=O)(=O)c2ccc(C)cc2)c1	inactive
OCC1OC(n2ccc3c2ncn2ncnc32)C(O)C1O (stereo unspecified)	inactive
CCOc1ccncc1[N+](=O)[O-]	inactive
